- TARGET ENTITY: GRK5 (Bos taurus)
- Construct: when using full-length kinases as the receptor[37] instead of isolated kinase domains; made in house
- Sequence (P43249 whole entry, the tested form may be a part): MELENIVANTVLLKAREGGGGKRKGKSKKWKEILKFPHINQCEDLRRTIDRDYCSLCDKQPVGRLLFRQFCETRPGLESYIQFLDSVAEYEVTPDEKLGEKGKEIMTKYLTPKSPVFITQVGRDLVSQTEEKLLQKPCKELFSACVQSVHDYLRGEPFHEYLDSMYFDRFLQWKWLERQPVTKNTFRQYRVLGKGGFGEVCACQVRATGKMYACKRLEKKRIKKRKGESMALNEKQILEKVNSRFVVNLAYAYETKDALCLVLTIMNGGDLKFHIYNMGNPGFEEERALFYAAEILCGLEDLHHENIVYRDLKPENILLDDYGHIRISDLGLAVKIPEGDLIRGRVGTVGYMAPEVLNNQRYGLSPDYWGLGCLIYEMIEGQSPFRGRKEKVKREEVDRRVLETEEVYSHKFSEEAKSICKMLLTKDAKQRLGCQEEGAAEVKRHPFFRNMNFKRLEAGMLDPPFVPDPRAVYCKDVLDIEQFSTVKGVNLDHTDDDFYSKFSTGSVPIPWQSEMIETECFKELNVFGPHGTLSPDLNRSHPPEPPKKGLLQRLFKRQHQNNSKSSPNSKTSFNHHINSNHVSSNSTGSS
- TEST DETAILS: DSF retest (confirmation), GRK5
- Format: binding, bovine
- PARTICULARS: 0.2 mg mL^–1 kinase
Listed next: entries and their corresponding GRK5 Tm.
Give a bare numeral; the unit °C is implied.

Worked set:
INSERT INTO measurements (compound, measured_quantity, value) VALUES
  ('CC1=C(C(=O)Nc2cc(Cl)c3[nH]ncc3c2)C(c2ccc(C(F)(F)F)cc2)CC(=O)N1 (stereo not shown) [GSK466317A]', 'GRK5 Tm', 28.0),
  ('CCn1c(-c2nonc2N)nc2c(C#CC(C)(C)O)nc(O[C@@H](CN)c3ccccc3)cc21 [GSK1007102B]', 'GRK5 Tm', 28.7),
  ('CC(C)COC(=O)c1ccc2c(c1)/C(=C/Nc1ccc(S(N)(=O)=O)cc1)C(=O)N2 [GW416981X]', 'GRK5 Tm', 28.7);

--- query ---
Query: Answer briefly: GRK5 Tm recorded on GRK5 (Bos taurus) for COc1cc2c(cc1Nc1nc(Nc3ccsc3C(N)=O)c3cc[nH]c3n1)N(C(=O)CN(C)C)CCC2 [GSK2110236A]
Reply: 32.6

---

- TARGET ENTITY: GRK5 (Bos taurus)
- Construct: when using full-length kinases as the receptor[37] instead of isolated kinase domains; made in house
- TEST DETAILS: In vitro phosphorylation assay (tubulin, 5 μM ATP), GRK5
- Type: biochemical, bovine
- PARTICULARS: relative to paroxetine
Please assign False whenever GRK5 fold (increase in potency relative to paroxetine) is at or above 2 fold, and True whenever it is below.

Query: Identify whether the molecule Fc1cccc(COc2ccc(Nc3ncnc4cc(-c5ccc[nH]5)sc34)cc2Cl)c1 [GW693881A] records GRK5 fold (increase in potency relative to paroxetine) below 2 fold.
Reply: True

Query: Consider CC(C)COC(=O)c1ccc2c(c1)/C(=C/Nc1ccc(S(N)(=O)=O)cc1)C(=O)N2 [GW416981X] . Does its GRK5 fold (increase in potency relative to paroxetine) lie strictly below 2 fold?
Reply: False

Query: A record lists CC1=C(C(=O)Nc2cc(Cl)c3[nH]ncc3c2)C(c2ccc(C(F)(F)F)cc2)CC(=O)N1 (centres unmarked) [GSK466317A] . Is its GRK5 fold (increase in potency relative to paroxetine) below 2 fold?
Reply: False

Query: For this molecule, is GRK5 fold (increase in potency relative to paroxetine) lower than 2 fold? CC1=C(C(=O)Nc2ccc3[nH]ncc3c2)C(c2ccc(F)cc2)NC(c2ccc(C(F)(F)F)nc2)=N1 (centres unmarked) [GSK317354A]
Reply: True

---

- TARGET ENTITY: GRK2 (Homo sapiens, UniProt P25098, S670A)
- Construct: made in house
- Sequence (P25098 1-689 S670A): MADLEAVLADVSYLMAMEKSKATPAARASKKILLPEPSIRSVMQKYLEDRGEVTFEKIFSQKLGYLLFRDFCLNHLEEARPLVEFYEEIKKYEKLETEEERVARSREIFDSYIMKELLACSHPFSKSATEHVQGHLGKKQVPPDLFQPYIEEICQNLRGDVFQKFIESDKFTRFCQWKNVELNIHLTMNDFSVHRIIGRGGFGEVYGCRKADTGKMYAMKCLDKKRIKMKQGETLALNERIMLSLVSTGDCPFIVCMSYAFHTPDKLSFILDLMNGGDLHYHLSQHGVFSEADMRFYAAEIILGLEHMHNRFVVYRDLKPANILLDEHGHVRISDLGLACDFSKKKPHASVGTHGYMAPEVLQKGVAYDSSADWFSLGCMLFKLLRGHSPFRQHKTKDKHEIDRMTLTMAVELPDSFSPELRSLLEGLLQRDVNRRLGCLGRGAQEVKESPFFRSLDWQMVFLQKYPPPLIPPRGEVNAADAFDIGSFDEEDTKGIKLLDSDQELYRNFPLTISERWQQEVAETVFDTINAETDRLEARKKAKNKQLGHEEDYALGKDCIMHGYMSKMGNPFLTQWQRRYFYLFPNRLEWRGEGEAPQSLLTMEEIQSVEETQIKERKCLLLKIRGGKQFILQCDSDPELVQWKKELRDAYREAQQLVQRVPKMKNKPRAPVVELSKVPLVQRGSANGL
- TEST DETAILS: DSF retest (confirmation), GRK2
- Type: binding
- PARTICULARS: 0.2 mg mL^–1 kinase
Entries and their measured GRK2 Tm follow.
// return numeric value only (unit: °C, not printed)

The following compounds have reported results that may help.
INSERT INTO assay_data (compound, target_entity, measured_quantity, value) VALUES
  ('Fc1cccc(COc2ccc(Nc3ncnc4cc(-c5ccc[nH]5)sc34)cc2Cl)c1 [GW693881A]', 'GRK2 (Homo sapiens, UniProt P25098, S670A)', 'GRK2 Tm', 40.0),
  ('CC1=C(C(=O)Nc2ccc3[nH]ncc3c2)C(c2ccc(Cl)c(Cl)c2)CC(=O)N1 (stereo not shown) [GSK299115A]', 'GRK2 (Homo sapiens, UniProt P25098, S670A)', 'GRK2 Tm', 48.3),
  ('CC(C)COC(=O)c1ccc2c(c1)/C(=C/Nc1ccc(S(N)(=O)=O)cc1)C(=O)N2 [GW416981X]', 'GRK2 (Homo sapiens, UniProt P25098, S670A)', 'GRK2 Tm', 40.4);

Shifting focus to the compound that follows.
Query: Specify GRK2 Tm for CCn1c(-c2nonc2N)nc2c(C#CC(C)(C)O)nc(O[C@@H](CN)c3ccccc3)cc21 [GSK1007102B] and stop.
Reply: 49.3
